Listed variants paired with reported protein stability index
B1: USP39 (parent)
chain: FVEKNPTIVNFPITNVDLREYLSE

Variants of: B1
Assay: protein stability index of a GFP-peptide fusion (GPS, HEK-293T) (PSI 1-6); higher = more stable;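 note: lentivirally expressed fusions sorted by FACS into six bins by GFP to DsRed ratio, PSI derived from sequencing read proportions per bin multiplied by bin number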
Conditions: c terminus: a fixed tail appended

Y21I; 2.04

// recorded protein stability index for "E20H" : 2.01

// recorded protein stability index for "L18E" : 2.05

// recorded protein stability index for "D17G" : 2.02
